Reported values of Kb for individual entries
biological target: human, citrated, platelet-rich plasma (Homo sapiens, UniProt P05106+P08514); construct: aggregating human, citrated, platelet-rich plasma; endogenous in cells; host or cells: human platelets in citrated platelet-rich plasma; experiment: Test (a): inhibition of ADP stimulated platelet aggregation (Born); type: cell-based; conditions: ADP induced aggregation of human platelet-rich plasma; read-out: Test (a): pA2 value indicating potency of platelet aggregation inhibition (converted)
Sequence (P08514 32-887 limits assumed): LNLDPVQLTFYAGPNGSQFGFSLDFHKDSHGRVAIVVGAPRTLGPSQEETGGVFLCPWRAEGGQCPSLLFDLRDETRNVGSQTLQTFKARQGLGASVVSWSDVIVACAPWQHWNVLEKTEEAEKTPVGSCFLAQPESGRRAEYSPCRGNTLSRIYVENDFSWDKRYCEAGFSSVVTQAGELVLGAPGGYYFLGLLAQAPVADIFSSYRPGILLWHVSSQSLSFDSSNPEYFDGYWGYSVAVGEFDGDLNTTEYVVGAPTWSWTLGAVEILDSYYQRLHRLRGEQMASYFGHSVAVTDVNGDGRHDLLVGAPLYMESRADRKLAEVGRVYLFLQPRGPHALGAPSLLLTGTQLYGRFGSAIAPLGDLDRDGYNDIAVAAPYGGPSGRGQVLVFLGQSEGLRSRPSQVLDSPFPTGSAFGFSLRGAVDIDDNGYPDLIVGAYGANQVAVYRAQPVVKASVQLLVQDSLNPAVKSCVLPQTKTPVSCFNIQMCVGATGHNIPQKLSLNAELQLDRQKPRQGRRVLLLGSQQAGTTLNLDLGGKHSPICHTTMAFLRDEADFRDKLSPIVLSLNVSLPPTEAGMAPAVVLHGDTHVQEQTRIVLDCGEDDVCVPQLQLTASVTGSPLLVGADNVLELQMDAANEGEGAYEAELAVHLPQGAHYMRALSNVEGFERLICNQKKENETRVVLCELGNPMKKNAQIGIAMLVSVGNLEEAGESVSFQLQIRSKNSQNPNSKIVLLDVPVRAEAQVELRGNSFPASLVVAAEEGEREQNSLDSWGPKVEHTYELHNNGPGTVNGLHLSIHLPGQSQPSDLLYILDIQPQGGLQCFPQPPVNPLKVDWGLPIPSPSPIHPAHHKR
Sequence (P08514 891-1039 limits assumed): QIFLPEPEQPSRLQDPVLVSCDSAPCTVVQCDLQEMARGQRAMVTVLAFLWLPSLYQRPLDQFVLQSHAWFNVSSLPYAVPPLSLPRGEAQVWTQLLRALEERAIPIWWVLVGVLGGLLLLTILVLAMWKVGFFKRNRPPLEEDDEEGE
Sequence (P05106 27-788): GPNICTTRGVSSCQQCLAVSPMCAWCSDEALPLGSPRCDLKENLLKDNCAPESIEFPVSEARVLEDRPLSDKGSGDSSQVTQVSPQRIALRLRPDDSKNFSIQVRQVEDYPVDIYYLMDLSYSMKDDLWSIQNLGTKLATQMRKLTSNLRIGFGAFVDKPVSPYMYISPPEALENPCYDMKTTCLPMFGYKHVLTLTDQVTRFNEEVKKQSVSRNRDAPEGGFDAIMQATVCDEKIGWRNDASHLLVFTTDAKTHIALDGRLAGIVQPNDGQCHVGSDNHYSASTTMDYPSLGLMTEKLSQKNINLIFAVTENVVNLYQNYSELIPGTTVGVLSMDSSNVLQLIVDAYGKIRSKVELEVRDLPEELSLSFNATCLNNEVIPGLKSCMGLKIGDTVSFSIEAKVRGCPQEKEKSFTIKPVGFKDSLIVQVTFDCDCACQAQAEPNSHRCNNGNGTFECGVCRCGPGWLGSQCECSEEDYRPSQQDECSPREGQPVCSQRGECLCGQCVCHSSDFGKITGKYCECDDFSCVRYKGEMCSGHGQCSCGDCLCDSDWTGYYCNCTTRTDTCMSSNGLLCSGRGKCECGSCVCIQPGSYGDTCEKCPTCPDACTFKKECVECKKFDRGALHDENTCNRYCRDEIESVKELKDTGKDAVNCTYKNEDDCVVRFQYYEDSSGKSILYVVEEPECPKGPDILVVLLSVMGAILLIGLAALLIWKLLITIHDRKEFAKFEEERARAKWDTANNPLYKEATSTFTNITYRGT
Numeric answer only, unit nM assumed.

O=C(O)COc1ccc(OCC2CCN(c3ccncc3)CC2)cc1 [Example 158] = 631

Kb recorded for this compound, COC(=O)COc1ccc(C(=O)C(C)CN2CCN(c3ccncc3)CC2)cc1 (racemic) [Example 177] , is 1580
